Hi there, I'd appreciate the recorded koff for every entry that follows.
biological target: T1, recombinant human TfR (2474-TR, R&D Systems), biotinylated (human, UniProt P02786 89-760, biotinylated with EZ-Link NHS-PEG4-Biotinylation Kit); assay: SPR (Biacore), biotinylated human TfR captured on an SA chip, VHH injected, 1:1 dissociation fit, pH 7.4
T1 construct: Bought protein; also called immobilized recombinant human TfR; biotinylated human TfR
T1 sequence (P02786 89-760 limits assumed): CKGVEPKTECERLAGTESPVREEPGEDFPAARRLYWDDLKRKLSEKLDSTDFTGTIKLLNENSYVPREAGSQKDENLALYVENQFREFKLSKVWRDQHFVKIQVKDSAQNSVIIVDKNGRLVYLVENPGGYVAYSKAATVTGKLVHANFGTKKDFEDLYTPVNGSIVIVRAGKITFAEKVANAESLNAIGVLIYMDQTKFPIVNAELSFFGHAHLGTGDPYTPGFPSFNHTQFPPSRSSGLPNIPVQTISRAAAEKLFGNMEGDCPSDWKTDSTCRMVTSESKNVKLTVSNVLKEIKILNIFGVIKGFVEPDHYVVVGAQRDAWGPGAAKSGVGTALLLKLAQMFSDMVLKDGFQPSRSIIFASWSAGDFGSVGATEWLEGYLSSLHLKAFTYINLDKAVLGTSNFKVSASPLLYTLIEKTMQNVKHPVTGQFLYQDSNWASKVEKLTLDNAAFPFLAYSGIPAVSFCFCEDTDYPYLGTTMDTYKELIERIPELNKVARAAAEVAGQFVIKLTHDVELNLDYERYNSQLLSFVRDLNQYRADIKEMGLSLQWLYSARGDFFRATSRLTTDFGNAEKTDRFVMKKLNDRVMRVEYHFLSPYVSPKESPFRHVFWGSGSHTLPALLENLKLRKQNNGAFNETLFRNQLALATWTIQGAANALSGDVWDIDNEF
Give just the numeric value; s⁻¹ need not be written.

query: If you can, please state the reported koff value of BBB00718 (VHH, also called histidine mutant of BBB00515) VHH: EVQLVESGGGSVQPGGSLRLSCTASGRTFNYAMGWFRQAPGKNREFVATIDWKDGSSYYLDSVRGRFTIERDDAKNTVYLQMNSLRPEDAAVYTCAVGDGDYCHTYTCAAEVEYDYWGQGTLVTVSS .
result: 0.00695

query: If you can, please state the reported koff value of BBB00709 (VHH, also called histidine mutant of BBB00515) VHH: EVQLVESGGGSVQPGGSLRLSCTASGRTFNYAMGWFRQAPGKNREFVATIDWKDHSSYYLDSVRGRFTIERDDAKNTVYLQMNSLRPEDAAVYTCAVGDGDYCSTYTCAAEVEYDYWGQGTLVTVSS .
result: 0.00511

query: If you can, please state the reported koff value of BBB00698 (VHH, also called histidine mutant of BBB00515) VHH: EVQLVESGGGSVQPGGSLRLSCTASGRTFHYAMGWFRQAPGKNREFVATIDWKDGSSYYLDSVRGRFTIERDDAKNTVYLQMNSLRPEDAAVYTCAVGDGDYCSTYTCAAEVEYDYWGQGTLVTVSS .
result: 0.00506

query: If you can, please state the reported koff value of BBB00710 (VHH, also called histidine mutant of BBB00515) VHH: EVQLVESGGGSVQPGGSLRLSCTASGRTFNYAMGWFRQAPGKNREFVATIDWKDGHSYYLDSVRGRFTIERDDAKNTVYLQMNSLRPEDAAVYTCAVGDGDYCSTYTCAAEVEYDYWGQGTLVTVSS .
result: 0.00444
